Cited source: the supplement of paper PMC5908809

drug sensitivity score values, listed per item
- System: YT (IL-2 2.5 ng/mL)
- Experiment: drug sensitivity score (DSS) (DSS units); higher = more sensitive; extreme values may be limits of the assay
- Assay conditions: 72 h
Observed property: drug sensitivity score

CCOc1cc2ncc(C#N)c(Nc3ccc(F)c(Cl)c3)c2cc1NC(=O)/C=C/CN(C)C [Pelitinib] (max concentration tested 2500 nM) | 4.06
COc1ccc(-c2cc3c(C)nc(N)nc3n([C@H]3CC[C@H](OCCO)CC3)c2=O)cn1 (max concentration tested 10000 nM) | 19.1
CCC1=C[C@@H]2CN(C1)Cc1c([nH]c3ccccc13)[C@@](C(=O)OC)(c1cc3c(cc1OC)N(C)[C@H]1[C@@](O)(C(=O)OC)[C@H](OC(C)=O)[C@]4(CC)C=CCN5CC[C@]31[C@@H]54)C2 [Vinorelbine] (max concentration tested 10000 nM) | 38.2
O=C(O)c1ccc2c(c1)nc(Nc1cccc(Cl)c1)c1ccncc12 [Silmitasertib] (max concentration tested 10000 nM) | 7.24
Cc1ccc(NC(=O)c2ccc(CN3CCN(C)CC3)cc2)cc1Nc1nccc(-c2cccnc2)n1 [Imatinib] (max concentration tested 10000 nM) | 6.1

###

- Test system: normal primary NK cells, pool 1 (3 donors), resting (IL-2 0 ng/mL);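 note: normalised to DMSO-only wells as negative and benzethonium chloride as positive control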
- Experiment: percent inhibition of viability; higher = more inhibition
- Assay conditions: 72 h; 10 nM
Observed property: percent inhibition of viability (%)

CNC(=O)c1cc(Oc2ccc(NC(=O)Nc3ccc(Cl)c(C(F)(F)F)c3)cc2)ccn1 [Sorafenib] (max concentration tested 1000 nM) | 0.71
Nc1ccn([C@@H]2O[C@H](CO)[C@@H](O)C2(F)F)c(=O)n1 [Gemcitabine] (max concentration tested 1000 nM) | -21.2
COc1ccc(-c2ccc3c(N4CCOC[C@@H]4C)nc(N4CCOC[C@@H]4C)nc3n2)cc1CO [AZD8055] (max concentration tested 10000 nM) | -7.65
Cc1ccc(C(=O)N(CCCN)[C@@H](c2oc3cc(Cl)ccc3c(=O)c2Cc2ccccc2)C(C)C)cc1 (max concentration tested 100 nM) | -12.4
CCNC(=O)c1noc(-c2cc(C(C)C)c(O)cc2O)c1-c1ccc(CN2CCOCC2)cc1 [Luminespib] (max concentration tested 1000 nM) | 21.2
COc1cc2c(N3CCN(C(=O)Nc4ccc(OC(C)C)cc4)CC3)ncnc2cc1OCCCN1CCCCC1 [Tandutinib] (max concentration tested 1000 nM) | -1.76

###

As shown below, each of these molecules has a reported percent inhibition of viability value.
- Test system: normal primary NK cells, pool 1 (3 donors) (IL-2 2.5 ng/mL);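 note: normalised to DMSO-only wells as negative and benzethonium chloride as positive control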
- Experiment: percent inhibition of viability; higher = more inhibition
- Assay conditions: 72 h; 250 nM
Observed property: percent inhibition of viability (%)

COc1cc2nccc(Oc3ccc(NC(=O)NC4CC4)c(Cl)c3)c2cc1C(N)=O [Lenvatinib] (max concentration tested 2500 nM) | 3.42
CCNC(=O)Nc1ccc(-c2nc3c(c(N4CCOC[C@@H]4C)n2)CCN(C2COC2)C3)cc1 [RG-7603] (max concentration tested 2500 nM) | 14.6
NC(=O)Nc1sc(-c2ccc(F)cc2)cc1C(N)=O [TPCA-1] (max concentration tested 25000 nM) | 13.2
CCOc1cc2ncc(C#N)c(Nc3ccc(F)c(Cl)c3)c2cc1NC(=O)/C=C/CN(C)C [Pelitinib] (max concentration tested 2500 nM) | 39
COc1cc(C(=O)NC2CCN(C)CC2)c(F)cc1Nc1ncc2c(n1)N(C1CCCC1)CC(F)(F)C(=O)N2C [TAK-960] (max concentration tested 2500 nM) | -9
CN1CCN(C2CCN(C(=O)Nc3cc(Oc4ccc(NC(=O)C5(C(=O)Nc6ccc(F)cc6)CC5)c(F)c4)ccn3)CC2)CC1 [Golvatinib] (max concentration tested 2500 nM) | 9.1
CCCNC(=O)Nc1ccc(Oc2ncnc3cc(OC)c(OC)cc23)cc1Cl [KRN-633] (max concentration tested 2500 nM) | 8.57
Nc1nc(NC2CC2)cc(-c2cccc(Cl)c2Cl)n1 [TH588] (max concentration tested 25000 nM) | 3.84
